Target: mouse TRPM3α2 (mTRPM3) ion channel (Mus musculus, UniProt J9SQF3)
Sequence (J9SQF3 1-1709 isoform J9SQF3-12): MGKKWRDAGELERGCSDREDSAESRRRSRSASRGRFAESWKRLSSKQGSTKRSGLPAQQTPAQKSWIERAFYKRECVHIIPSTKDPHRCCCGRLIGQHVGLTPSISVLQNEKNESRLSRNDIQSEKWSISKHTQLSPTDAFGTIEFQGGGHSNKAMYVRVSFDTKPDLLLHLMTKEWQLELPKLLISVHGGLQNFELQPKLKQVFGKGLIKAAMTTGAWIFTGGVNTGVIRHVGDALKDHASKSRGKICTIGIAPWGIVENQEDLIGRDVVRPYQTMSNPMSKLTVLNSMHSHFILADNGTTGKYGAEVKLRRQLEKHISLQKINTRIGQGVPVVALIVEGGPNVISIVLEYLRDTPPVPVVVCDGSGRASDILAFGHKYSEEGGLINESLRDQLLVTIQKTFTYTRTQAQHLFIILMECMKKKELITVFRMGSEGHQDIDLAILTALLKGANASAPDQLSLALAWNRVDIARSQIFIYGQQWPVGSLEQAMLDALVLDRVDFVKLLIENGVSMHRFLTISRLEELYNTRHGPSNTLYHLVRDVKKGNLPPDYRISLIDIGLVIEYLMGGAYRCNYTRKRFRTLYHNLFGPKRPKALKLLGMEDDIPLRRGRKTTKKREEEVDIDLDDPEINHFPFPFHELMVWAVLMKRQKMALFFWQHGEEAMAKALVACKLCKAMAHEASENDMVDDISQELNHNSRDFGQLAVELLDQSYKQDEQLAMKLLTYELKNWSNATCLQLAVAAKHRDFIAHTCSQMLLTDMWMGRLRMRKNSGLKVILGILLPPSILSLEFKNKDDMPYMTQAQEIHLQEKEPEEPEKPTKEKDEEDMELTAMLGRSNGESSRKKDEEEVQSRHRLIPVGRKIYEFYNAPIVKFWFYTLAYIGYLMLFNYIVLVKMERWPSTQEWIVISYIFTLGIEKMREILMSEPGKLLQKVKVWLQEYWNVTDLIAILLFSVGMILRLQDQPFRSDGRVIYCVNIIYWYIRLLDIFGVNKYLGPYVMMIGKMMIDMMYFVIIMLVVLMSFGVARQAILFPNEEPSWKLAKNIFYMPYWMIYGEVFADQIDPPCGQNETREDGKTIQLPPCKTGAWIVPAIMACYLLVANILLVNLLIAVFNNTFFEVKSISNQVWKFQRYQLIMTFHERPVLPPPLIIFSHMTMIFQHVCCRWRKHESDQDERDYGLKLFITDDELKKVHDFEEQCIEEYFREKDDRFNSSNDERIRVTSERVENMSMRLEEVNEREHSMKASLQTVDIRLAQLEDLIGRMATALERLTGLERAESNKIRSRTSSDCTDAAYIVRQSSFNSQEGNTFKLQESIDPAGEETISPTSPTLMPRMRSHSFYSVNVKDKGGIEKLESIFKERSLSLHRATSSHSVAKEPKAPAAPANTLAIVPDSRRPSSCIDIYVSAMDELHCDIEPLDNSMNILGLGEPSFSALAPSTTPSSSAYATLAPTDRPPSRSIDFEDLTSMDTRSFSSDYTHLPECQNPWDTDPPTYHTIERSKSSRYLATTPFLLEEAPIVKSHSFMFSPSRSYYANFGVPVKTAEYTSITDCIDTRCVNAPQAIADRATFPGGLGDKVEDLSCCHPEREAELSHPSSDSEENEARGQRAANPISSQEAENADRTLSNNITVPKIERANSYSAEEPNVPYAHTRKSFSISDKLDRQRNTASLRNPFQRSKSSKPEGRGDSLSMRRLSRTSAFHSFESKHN
Experiment: Monitoring the TRPM3 ion channel driven Ca2+ uptake (Fluo-4 AM assay)
Settings: mTRPM3alpha2 overexpressing flip-in HEK293 cells, stimulated with Pregnenolone sulfate (PS) 50 μM
This listing pairs compounds with measured IC50.
readout name: IC50

>>> df
                                    compound    value_reported
 0  Cc1oc2ccc(OCC3(C(F)F)CC3)cc2c1C(=O)NC1(C(N)=O)CCOC1 (single isomer, unassigned) [Cpd 036 - En2]         < 1000 nM
 1     Cc1oc2ccc(OCC3CC3)cc2c1C(=O)NC1CCOCC1  1000 to 20000 nM
 2  Cc1oc2ccc(OCC(F)F)cc2c1C(=O)NC(C)(CO)C(N)=O (single isomer, unassigned) [Cpd 041 - En2]  1000 to 20000 nM
 3  Cc1oc2ccc(OC[C@H]3C[C@@H](C)C3)cc2c1C(=O)NC(C)(CO)C(N)=O (single isomer, unassigned) [Cpd 058 - En1]         < 1000 nM
 4  Cc1oc2ccc(OCC(F)F)cc2c1C(=O)NC1(C(N)=O)CCOC1 (single isomer, unassigned) [Cpd 044 - En1]  1000 to 20000 nM
 5  Cc1oc2cc(F)c(OCC3CC3)cc2c1C(=O)NC(C)(CO)C(N)=O (single isomer, unassigned) [Cpd 045 - En1]         < 1000 nM
 6  Cc1oc2ccc(OC[C@H]3C[C@H](C)C3)cc2c1C(=O)NC(C)(CO)C(N)=O (single isomer, unassigned) [Cpd 059 - En2]  1000 to 20000 nM
 7  Cc1oc2ccc(OCC3CC3)cc2c1C(=O)NC1(C(N)=O)COC1         < 1000 nM
 8  Cc1oc2ccc(OCC3CCC3)cc2c1C(=O)NC(C)(CO)C(N)=O (single isomer, unassigned) [Cpd 053 - En2]         < 1000 nM
 9  Cc1oc2ccc(OCC3CC3)cc2c1C(=O)NC1(CO)CCOCC1         < 1000 nM
10  Cc1oc2ccc(OCC3CC3)cc2c1C(=O)NC1(C(N)=O)CCOC1 (single isomer, unassigned) [Cpd 035 - En2]         < 1000 nM
11  Cc1oc2ccc(OCC3CC3)cc2c1C(=O)NC1(CO)CCNC1=O (single isomer, unassigned) [Cpd 028 - En2]         < 1000 nM
12  Cc1oc2ccc(OCC3CC3)cc2c1C(=O)NC(C)(CO)C(N)=O (single isomer, unassigned) [Cpd 017 - En1]         < 1000 nM
13  Cc1oc2ccc(OC[C@H]3C[C@@H]4C[C@@H]4C3)cc2c1C(=O)NC(C)(CO)C(N)=O (single isomer, unassigned) [Cpd 051 - En1]         < 1000 nM
